Hey, just so you know, these numbers are from the NTF2 design screens of Basanta et al. (2020).

The entries below come with measured protease stability score values attached.
assay: protease stability score; higher = more stable; yeast display proteolysis, trypsin and chymotrypsin;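 note: log10 excess protease needed over predicted unfolded state with 0 meaning unfolded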
assay_endpoint: protease stability score

>>> observed_value("DEDLMERLKTILDAQSNGNPDELRRMFDPNAKIDIGDKEYHGMENFASNQHKRVKHIEQKYQFKSISAEGDKLDVRLRAQQVVNGTPRKYEYNLTARMSNGKVKSMEVQIPEEVLKRLEK")
-0.219
>>> observed_value("DEKDAEKVMRELAKAAVNGNYKKAVQLVKEDVQVEYMDQRTHGKEKLKEMLKKFTDLGAEVEYKEVHVKGDTVTVKVEAKMDGKKVKFKVQYVVTDHRLDKVTVKYSEEAYKVIKHG")
0.525
>>> observed_value("DEQSEAEKFARDIQKIANHNNFERLARMADKDVKYNVGDKVITGEEKAIEHHRRLQKQFDSMRLEIESVRVQGEKIVVVARYTVEVNGTTRSERFVLVAEVHNGTIRIKTVQQG")
-0.167
>>> observed_value("DETQMDHIRRFFEAVVNGDPDELERQADPNVKFSVGNQQWHGENQLKKEAEKRRKEIRINIKSMEVRVHGDSVVVHIRQEVEVNGQPEDITFTMTVEVSNGKIKSVDVQMDQQEERNVQR")
-0.342
>>> observed_value("DTRVARLVQEIMENVKKGSKEHLKQMVDPNVKIRVGDKTFHGREDFVTHLMDERKEARVDYHLKDVKDEGDKAFADVVQHVDKNGQPRNRHFIIDARAENGRLKEMRIENTK")
-0.3
>>> observed_value("EEDVSNQVRHAFDLHRSNNPENLEEMFDKNARIRIGDKTIHGREQYSETAEQEIREQKVEYKSIDVKAKNGRVHIRIDFVSNVNGRPKRDSMQQTYEIHNGRISHASIESDS")
-0.151
>>> observed_value("DKEDAEKVMKTMMKVVEKGDPEQLMKVGSEGVEYQAGDLKAHGPEALKQVMDYLQKHGVRLEIKHAEVEGNTVRTYVEYKNGEETDTVEANADVDGGKIDRVEVEVGERAEKWLKHG")
-0.57
>>> observed_value("DEDKLRDVAKRLQEIIHTNNPDDLNKQADKDARVQVGDKEYKGRRDVYKFMETLKHQVDQIEIHDVKFDGDHAHFHVMMNVNGKKVEVHIIMEVENGKVKELNFDPKNMEQLDK")
0.708
>>> observed_value("DDDEVRKIREFMHVMSRGDSNRAMEMADPNAHFKVGDKTINGRESFKSWLRKQREEIHVQIDDVTNTSEPGHVEVNADVTFEHNGQPDRVTLIMIARLKNGRITFLEIRRKK")
1.33
>>> observed_value("EEEKKNRAHQFLKAVERGDPEELRKQFDPNAHARVGDKRYHGMEEWAKDVMRRVRELRMSIKRLSVDVQGNDVKVNMNLVINRNGKPKEFREVWYFKIHNGHFVELHVQEEP")
0.477
>>> observed_value("DEDDQERKLRKIAKNITKGDKTSLLKMVDKDAKASVGDKTVEGDNQLKRVMEERTRRIDHLDLKDVKVTGNTLVVHYVIHHNGKNKHQVAFVVLDNGRIKSMSFHDG")
-0.08
>>> observed_value("DEEQIKDLLERLMRAQQHGDPDRMANYLDENVRVRIGEKDISGREQYKDWNQEQVERIDHFQVHHIEVQGDKAKIDMEMKVDGKRFRFTVRMHIRDGRIDEFRFDPTVQRKIET")
0.97
>>> observed_value("DHNDHARRLFEQWVQAIEHNDPDQIRKNLPPNVKVTIGDKTISGRENVVRTVKRELHRVDHIRIQLDHVEVQGDKIVLRANVRQDHNGQNRHFTLRLVANTFNGREQFIDIQLN")
-0.121
>>> observed_value("DHDAAHQFKKMLDALRTNDEEHARRMADPNAKFQIGDKTYKGMDTFIRQLVREAREIKIHIDDIKVHDKGDKAVLNVNVKFSKNGEPDSRVLNFEFRAHNGHLKEIVVRDDK")
0.757
>>> observed_value("DEDETAKRVNDKAREAAETNNPKQFEELADPNVRMVIGDKEWRGRRQLSHWYKEMADRADHMQVDYQDVHVSGDKVTLHVQINLESNGHSEIKTLIVVMVVHNGRLRAQSQWEQ")
0.534
>>> observed_value("DQEDLRRIAEQVNRAFEKNDHDLMRRLADKDVKFHVGEKELTGRDNLARFLQEFRRRADHITVKSFDASNGRVNADIEIDVNGQKIKLHMQAEVHNGHIKHVRFHYTDEQQLRDFLS")
1.24
>>> observed_value("EERVQKMLEDAMRTNDEVELIKSAPPNAKVVVGDKKIKGHEEAHRWAVRFKEQVDHTEIKHLDINGDKVSLDFSIVINGKKIRVVVKVTATNGKVREVHVQATSEDDQEQLKRDIK")
0.652
>>> observed_value("DENKLKEVANRIVSAVRTNDPDHLANLFDKDDKFQIGEKQFHGHEELRKALEEIHQEVDRLHVKTYELHNGVVKIHVDMKYNGHEIKVVFYFTVHNGRLKYMEVKSQ")
-0.346
>>> observed_value("DEQQAKRVAEEFNRVLQTGDNRKAMQLADKDVKLHVGDKDVHGRETMMKLVRKERDRVDHVEIKEVTIQGNKIDVILTVVVNGRHKEKHYVLHLHNGRIEDLSVRST")
0.005
>>> observed_value("DDQDIRHILDQWRTGDFDQVRNQADENANIVYGDKRYHGREQLQEWMKTLKEQIDHFHIRSITQKGDKARFEAEADVNGVDVKFSVVISVHNGRVKFFEFQWTSEELLERIKHEIG")
0.942
>>> observed_value("DEDLKHLFHTFQKVLEEGNREKLRRLADENVTVSYGDKRVHGMESFARQVKEERDEQRVVINIRKVDVSGDQVRVVADVEREHNGKPDRKNLVMEANAEGDKFREVKYTEHG")
0.151
>>> observed_value("DEEEQERAMEKLDHAIEKGDPDDAVELLDENADAVIGDKRYHGREAATTFMHELRKQIDHIHIRDMQIDNGRAHIEVDARHNGQERKINVVFVFHNGRATSMENRSE")
1.02

###

The reader will find reported protease stability score values listed item by item below.
assay: protease stability score; higher = more stable; yeast display proteolysis, trypsin and chymotrypsin;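 note: log10 excess protease needed over predicted unfolded state with 0 meaning unfolded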
assay_endpoint: protease stability score

>>> observed_value("DRDQEDSFAKKVADVIQTGNPDDMRKLADEDARVDVGDKQYTGREHVDEAVENERKRIDHQQINSFSVNNGQIHATVSYVHNGQTHRFVVNVEIHNGHIKRARWQSK")
0.273
>>> observed_value("DTEEREKVMEIMRTGDPDKLHKLMDKNVKVVVGDKRYHGREMVEELVQKLKSQIDHIEVKDYTIQGDNLILNAVINVDGRSVELVIFVRVHNGRIKHMNFNVTDEEEQKKLDENLS")
1.34
>>> observed_value("DEDKQRKTADEIQKVIKQGDEKKAEDLFDENAKLSIGDKFYRGKEDFKRWFRSLRDRIDHFQVKDLEVDGERAEFVVVFHVNGKNVEMVIEIHVHNGKVKHARVNPEDERKLNT")
1.05

###

test: protease stability score; higher = more stable; yeast display proteolysis, trypsin and chymotrypsin;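 note: log10 excess protease needed over predicted unfolded state with 0 meaning unfolded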
assay_endpoint: protease stability score

>>> observed_value("DDEEALKVIHHFIEVMMSGDEETARRLADKNVEAHYGDRTYHGSEEAVRALIEWARSVDNMRIDSVTQEGNEVKVHVVAHFDGRRVEVDIVIEAHNGKINFVTINPDDIRRMKQ")
0.831
>>> observed_value("DEHLQEVWENMLRAQENGDPDSFSRLVDPNVDFVYGDQTVHGREQAMTELKRRTDEIRFEIHHVDVRAQNGHIRVRIDQVKEHNGTPHREKTKNTIVADGDKVKSVEVRSDG")
-0.256
>>> observed_value("DHEARKLMKRFFSAINHGDPDQIRKNVDKDVKAQVGDKTVHGREEWVKWMTRRLDEIKMHYDVTTIDVQGDKVHAQAKVRYDVDGRPITDQVTFTARIENGKITSLSLRMDPENQQKIEK")
1.15
>>> observed_value("DERVIQEIRKMFNTNNFDSIAKNADKDATASIGNKHVHGKDNVKKLLDQFSRQIDHIQIDSVHVQGEKFVAQMKVNINGRERTAEMRMEVHNGKIQRISITFTDPSAQQTIKERME")
0.942
>>> observed_value("DEEVEHQFRTYERALRQGDEQELRDQVDKNAEIEYGDRKIHGMDRAARKIARRVRELRVEDNFVSLEVKENHVQKNVDVVIEVNGRPVRFRADMQVQVHNGKVKEIRVQVPEEVQKRVKE")
0.127
>>> observed_value("DEEHAESVKTLFKNLRTNNEDEVEKLVDPNARMKYGDKQVHGRDEIKHMIQRLKDELHIEMDVKRMNVHNGQADLKFDITVVRNGKPDTAKANVRVQFSNGRIHDFTVQLNK")
0.347
>>> observed_value("DEEDAKNAVRAVEALVTGDPDKMSKLFDKHASVEVGDKRVRGREEIRELAEQLEREMRLRVEIKHVQIQGDKVDVKFDAQRHHNGRPDDNKQTMHLTAHDGRVKNMSITSNG")
-0.376
>>> observed_value("DNDHWRKIATDMIKALQEGDRQKVKKLVDKDAKARIGDRDVHGREHIVTLLYEMQQRIDHMQLVDVKVRGEEVVVRYHAKFNGKVVDVSITLHFRNGKVKEMRVDPRAVESLKK")
1.22
>>> observed_value("DEENSEAMKRWFNAMETGDPDKVKEQLDENAKIEVGDKRIHGRDQAREEVRKMLERWEIRIKIDEIDVHGEKVVVKFRQHNDRNGEPDNQTVVFIAIFDNGKATRWLLTTDG")
0.289
>>> observed_value("DEDQVEVMRELWRAYEDGADDQLKKLVDPNARFEVGDKHIEGREEYARDMQRQRKEIRVHYREISIENREGRLHIDYIYQRTHNGQPQTVRQVVEVDIKNGVVQRQRVQDVS")
0.474
>>> observed_value("DEEDERKFAEEFHKVLQTNNEEEIRKMFDPNVTAHVGDKRIHGREEVATVIARLARRADHIRLEHVEVENGRITMTLRADVDGRDVQFRVILTVRNGVVQEVQFDYTSEDQFREIQK")
1.59
